Attribution: patent US20220048967A1

# ASSAY_SYSTEM: T1, human gastric inhibitory peptide receptor (GIPR) (human, UniProt P48546 22-466)
# T1 sequence (looked up): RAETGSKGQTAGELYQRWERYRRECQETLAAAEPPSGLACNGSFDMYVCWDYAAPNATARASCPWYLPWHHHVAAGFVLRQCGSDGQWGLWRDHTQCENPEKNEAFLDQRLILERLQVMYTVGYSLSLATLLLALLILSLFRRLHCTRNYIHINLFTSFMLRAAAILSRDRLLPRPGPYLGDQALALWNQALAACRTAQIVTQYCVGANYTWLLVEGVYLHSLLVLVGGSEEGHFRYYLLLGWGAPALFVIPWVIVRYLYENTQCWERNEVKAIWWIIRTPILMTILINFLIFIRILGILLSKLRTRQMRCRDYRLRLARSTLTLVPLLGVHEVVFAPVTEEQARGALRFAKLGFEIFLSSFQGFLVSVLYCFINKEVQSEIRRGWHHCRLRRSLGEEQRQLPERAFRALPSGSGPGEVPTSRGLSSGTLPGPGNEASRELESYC
# TEST_PROTOCOL: cell-based or functional assay
Would you kindly list hGIPR cAMP Rel EC50 for each of these binders?
Numbers only, in nM.

BINDER: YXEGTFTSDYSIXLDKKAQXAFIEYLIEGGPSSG (Aib2, αMeL13, (2-[2-(2-Amino-ethoxy)-ethoxy]-acetyl)2-(γ-Glu)-CO-(CH2)16-CO2H on K17, Aib20, C-terminal NH2) [Example 300]
hGIPR cAMP Rel EC50 [nM]: 0.0234

BINDER: YXEGTFTSDYSIXLDEKAQXAFIXYLIAGGPSSGAPPPS (not fully specified; Aib2, αMeL13, (2-[2-(2-Amino-ethoxy)-ethoxy]-acetyl)2-(γ-Glu)-CO-(CH2)18-CO2H on K17, Aib20, D-Glu24, C-terminal NH2) [Example 343]
hGIPR cAMP Rel EC50 [nM]: 0.0422

BINDER: YXEGTXTSDYSILLDKKAQXEFIEYLIAGGPSSG (Aib2, αMeF(2F)6, (2-[2-(2-Amino-ethoxy)-ethoxy]-acetyl)2-(γ-Glu)-CO-(CH2)16-CO2H on K17, Aib20, C-terminal NH2) [Example 314]
hGIPR cAMP Rel EC50 [nM]: 0.029

BINDER: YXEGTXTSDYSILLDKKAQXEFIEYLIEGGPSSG (Aib2, αMeF(2F)6, (2-[2-(2-Amino-ethoxy)-ethoxy]-acetyl)2-(γ-Glu)-CO-(CH2)16-CO2H on K17, Aib20, C-terminal NH2) [Example 312]
hGIPR cAMP Rel EC50 [nM]: 0.0207

BINDER: YXEGTFTSDYSILLDKKAQSAFIEYLIEGGPSSGAPPPS (Aib2, (2-[2-(2-Amino-ethoxy)-ethoxy]-acetyl)2-(γ-Glu)-CO-(CH2)18-CO2H on K17, C-terminal NH2) [Example 263]
hGIPR cAMP Rel EC50 [nM]: 0.317

// for each binder below, give its hGIPR cAMP Rel EC50
1. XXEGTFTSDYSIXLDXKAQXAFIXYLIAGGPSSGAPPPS (D-Tyr1, Aib2, αMeL13, Orn16, (2-[2-(2-Amino-ethoxy)-ethoxy]-acetyl)2-(γ-Glu)-CO-(CH2)18-CO2H on K17, Aib20, D-Glu24, C-terminal NH2) [Example 291]
2. YXEGTFTSDYSIXLDEKAQXAFIEYLIEGGPSSG (Aib2, αMeL13, (2-[2-(2-Amino-ethoxy)-ethoxy]-acetyl)2-(γ-Glu)-CO-(CH2)16-CO2H on K17, Aib20, C-terminal NH2) [Example 303]
3. YXEGTXTSDXSIXLDXKAQXEFIXXLIEGGPSSG (Aib2, αMeF(2F)6, 4Pal10, αMeF13 (so in the source), Orn16, (2-[2-(2-Amino-ethoxy)-ethoxy]-acetyl)2-(γ-Glu)-CO-(CH2)16-CO2H on K17, Aib20, D-Glu24, αMeY25, C-terminal NH2) [Example 264]
4. XXEGTFTSDYSIXLDKKAQXAFIXYLIEGGPSSGAPPPS (D-Tyr1, Aib2, αMeL13, (2-[2-(2-Amino-ethoxy)-ethoxy]-acetyl)2-(γ-Glu)-CO-(CH2)18-CO2H on K17, Aib20, D-Glu24, C-terminal NH2) [Example 356]

Response:
[0.118, 0.0254, 0.0196, 0.386]

// for each binder below, give its hGIPR cAMP Rel EC50
1. XXEGTFTSDYSIXLDKKAQXAFIEYLIEGGPSSGAPPPS (not fully specified; D-Tyr1, Aib2, αMeL13, (2-[2-(2-Amino-ethoxy)-ethoxy]-acetyl)2-(γ-Glu)-CO-(CH2)18-CO2H on K17, Aib20, C-terminal NH2) [Example 334]
2. YXEGTFTSDYSILLDKKAQKAFIEYLIEGGPSSGAPPPS (Aib2, (2-[2-(2-Amino-ethoxy)-ethoxy]-acetyl)2-(γ-Glu)-CO-(CH2)18-CO2H on K17, C-terminal NH2) [Example 256]
3. YXEGTFTSDYSIXLDKKAQXAFIEYLIAGGPSSGAPPPS (Aib2, αMeL13, (2-[2-(2-Amino-ethoxy)-ethoxy]-acetyl)2-(γ-Glu)-CO-(CH2)1s-CO2H (so in the source); probably (CH2)18) on K17, Aib20, C-terminal NH2) [Example 324]
4. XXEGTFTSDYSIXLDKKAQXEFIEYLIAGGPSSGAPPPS (D-Tyr1, Aib2, αMeL13, (2-[2-(2-Amino-ethoxy)-ethoxy]-acetyl)2-(γ-Glu)-CO-(CH2)18-CO2H on K17, Aib20, C-terminal NH2) [Example 290]
5. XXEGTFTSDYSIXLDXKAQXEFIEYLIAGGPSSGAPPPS (D-Tyr1, Aib2, αMeL13, Orn16, (2-[2-(2-Amino-ethoxy)-ethoxy]-acetyl)2-(γ-Glu)-CO-(CH2)18-CO2H on K17, Aib20, C-terminal NH2) [Example 349]

Response:
1: 0.0718; 2: 0.643; 3: 0.0374; 4: 0.0629; 5: 0.117
